B1: library; numbered along this chain (parent)
chain: MEVVDPQQLGMFTEGELMSVGMDTFIHRIDSTEVIYQPRRKRAKLIGKYLMGDLLGEGSYGKVKEVLDSETLCRRAVKILKKKKLRRIPNGEANVKKEIQLLRRLRHKNVIQLVDVLYNEEKQKMYMVMEYCVCGMQEMLDSVPEKRFPVCQAHGYFCQLIDGLEYLHSQGIVHKDIKPGNLLLTTGGTLKISDLGVAEALHPFAADDTCRTSQGSPAFQPPEIANGLDTFSGFKVDIWSAGVTLYNITTGLYPFEGDNIYKLFENIGKGSYAIPGDCGPPLSDLLKGMLEYEPAKRFSIRQIRQHSWFRKKHPPAEAPVPIPPSPDTKDRWRSMTVVPYLEDLHGADEDEDLFDIEDDIIYTQDFTVPGQVPEEEASHNGQRRGLPKAVCMNGTEAAQLSTKSRAEGRAPNPARKACSASSKIRRLSACKQQ

- Variants of: B1
- protocol.description: STK11 functional score (HeLa growth suppression), rescaled enrichment; synonymous median = 1, nonsense median = 0 (normalised score)
- measurement.context: with HeLa; variant type: missense
attribute.measured: STK11 functional score

Some variants with known STK11 functional score results, for comparison:
>>> print(df.to_string())
   sequence_variant      attribute_measured  readout_value
0             D358A  STK11 functional score           1.27
1             Y166L  STK11 functional score           0.75
2             Q371S  STK11 functional score           1.32

Identify the reported STK11 functional score for the following entry. E317C
1.49

Determine from records and report STK11 functional score for T230F
0.961

Return reported STK11 functional score. Input variant: E120L
1.38

Find the measured STK11 functional score of A410Y and report it.
1.38

State its STK11 functional score: T336L
1.39

Supply measured STK11 functional score of K423S in your reply.
1.56

Please give the documented STK11 functional score of H379G
1.11

Give STK11 functional score for the following variant: S193T
1.22
